System: Enterococcus sp.
Test: in vitro antibacterial evaluation, MIC by broth dilution
Format: cell-based
Conditions: broth dilution, inoculum 5×10^5 CFU/mL, 18 hours at 35° C.; strain ATCC 29212
Below, each entry is listed alongside its reported MIC Enterococcus faecalis (ATCC 29212).
Value expressed in µg/mL; do not type the unit.

Example compounds with recorded MIC Enterococcus faecalis (ATCC 29212):
- CC(C)=CCN1CC(C(O)C2NC(=O)C(C(O)C3CNC(=N)N3)NC(=O)C(Cc3ccc(OC4OC(CO)C(OC5OC6COC7(OC6C(O)C5O)C5CC6CC(C5)CC7C6)C(O)C4O)cc3)NC(=O)C(C(C)c3ccccc3)NC(=O)CNC(=O)C(CO)NC2=O)N(C2OC(CO)C(O)C(O)C2O)C1=N (stereo not drawn): 8
- CC(c1ccccc1)C1NC(=O)CNC(=O)C(CO)NC(=O)C(C(O)C2CNC(=N)N2C2OC(CO)C(O)C(O)C2O)NC(=O)C(C(O)C2CNC(=N)N2)NC(=O)C(Cc2ccc(OC3OC(CO)C(OC4OC5COC6(CCCCC6)OC5C(O)C4O)C(O)C3O)cc2)NC1=O (stereo not drawn): 8

Value of measured MIC Enterococcus faecalis (ATCC 29212) for the entry CC(c1ccccc1)C1NC(=O)CNC(=O)C(CO)NC(=O)C(C(O)C2CNC(=N)N2C2OC(CO)C(O)C(O)C2O)NC(=O)C(C(O)C2CNC(=N)N2)NC(=O)C(Cc2ccc(OC3OC(CO)C(OC4OC(CO)C(O)C5OC6(CCCCCCCCCCCC6)OC45)C(O)C3O)cc2)NC1=O (stereo not drawn) [Example 210a] : 8

* * *

System: Streptococcus sp.
Assay: in vitro antibacterial evaluation, MIC by broth dilution
Format: cell-based
Conditions: broth dilution, inoculum 5×10^5 CFU/mL, 18 hours at 35° C.; strain ATCC 6301
Below, each entry is listed alongside its reported MIC Streptococcus pneumoniae (ATCC 6301).

Value of measured MIC Streptococcus pneumoniae (ATCC 6301) for the entry CC(c1ccccc1)C1NC(=O)CNC(=O)C(CO)NC(=O)C(C(O)C2CNC(=N)N2C2OC(CO)C(O)C(O)C2O)NC(=O)C(C(O)C2CNC(=N)N2)NC(=O)C(Cc2ccc(OC3OC(CO)C(OC4OC5COC6(CCCCC6(C)C)OC5C(O)C4O)C(O)C3O)cc2)NC1=O (stereo not drawn) [Example 205] : <0.12 µg/mL

Value of measured MIC Streptococcus pneumoniae (ATCC 6301) for the entry CC(c1ccccc1)C1NC(=O)CNC(=O)C(CO)NC(=O)C(C(O)C2CNC(=N)N2C2OC(CO)C(O)C(O)C2O)NC(=O)C(C(O)C2CNC(=N)N2)NC(=O)C(Cc2ccc(OC3OC(CO)C(OC4OC5COC(c6ccc(Oc7ccc(C(C)(C)C)cc7)cc6)OC5C(O)C4O)C(O)C3O)cc2)NC1=O (stereo not drawn) [Example 181] : <0.06 µg/mL

Value of measured MIC Streptococcus pneumoniae (ATCC 6301) for the entry CC(c1ccccc1)C1NC(=O)CNC(=O)C(CO)NC(=O)C(C(O)C2CNC(=N)N2C2OC(CO)C(O)C(O)C2O)NC(=O)C(C(O)C2CNC(=N)N2)NC(=O)C(Cc2ccc(OC3OC(CO)C(OC4OC5COC6(CC(C)(C)CC(C)(C)C6)OC5C(O)C4O)C(O)C3O)cc2)NC1=O (stereo not drawn) [Example 207] : <0.12 µg/mL
